// provenance: patent US9714231B2

Target: human GPR40 (Homo sapiens)
Sequence (O14842 whole entry): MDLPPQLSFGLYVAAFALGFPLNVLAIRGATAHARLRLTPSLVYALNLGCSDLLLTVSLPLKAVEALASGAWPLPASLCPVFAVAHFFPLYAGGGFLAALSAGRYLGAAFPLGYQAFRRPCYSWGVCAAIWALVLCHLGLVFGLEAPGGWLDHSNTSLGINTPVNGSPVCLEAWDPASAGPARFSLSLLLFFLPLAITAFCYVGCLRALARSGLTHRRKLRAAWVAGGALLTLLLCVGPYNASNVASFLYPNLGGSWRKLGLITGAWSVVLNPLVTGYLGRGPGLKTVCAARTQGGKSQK
Test: FDSS-based intracellular calcium assay (Human GRP40 in vitro assay)
Assay type: cell-based
Design: 3xFLAG; expressed in transfected cells
Settings: cells expressing GPR40, intracellular Ca2+ response, FDSS reader; read-out: hGPR40 EC50
pEC50: −log10 of the molar value. Structures can show the parent of a compound that is named as a salt.
Each entry gets 0 if its pEC50 stays under 6, and 1 if its pEC50 is 6 or above.

• COc1cc(N2CCC(Oc3ccc(N4C[C@H](OC)[C@@H](C)[C@@H]4CC(=O)O)c(F)c3)C(C)C2)c(Cl)cn1 (stereo partly drawn) = 1
• CCOc1ccc(F)c(N2CCC(Oc3ccc(N4C[C@H](C(F)(F)F)C[C@@H]4CC(=O)O)cc3)CC2)c1 = 1
• COc1cc(N2CCC(Oc3ncc(N4C[C@H](OC)[C@@H](C)[C@@H]4CC(=O)O)cc3C(F)(F)F)C(C)C2)c(Cl)cn1 (stereo partly drawn) = 1
• O=C(O)C[C@H]1C[C@@H](C(F)(F)F)CN1c1ccc(OC2CCN(c3cccc(OC(F)(F)F)c3)CC2)cc1 [Example 24, HCl] = 0
• COc1ccc(F)c(N2CCC(Oc3ccc(N4C[C@H](C(F)(F)F)C[C@@H]4CC(=O)O)cc3)C2)c1 (single isomer, unassigned) [Example 12, Isomer 2, HCl] = 0
• CCOc1ccc(F)c(N2[C@H](C)C[C@H](Oc3ccc(N4C[C@H](C(F)(F)F)C[C@@H]4CC(=O)O)cc3)C[C@@H]2C)c1 [Example 42, HCl] = 1
• COc1cc(N2CCC(Oc3ccc(N4C[C@H](C(F)(F)F)C[C@@H]4CC(=O)O)cn3)C(C)C2)c(Cl)cn1 (stereo partly drawn) = 1
• COc1ccc(F)c(N2CCC(Oc3ccc(N4C[C@H](OC(C)C)C[C@@H]4CC(=O)O)cc3)C(C)C2)c1 (stereo partly drawn) [Example 38, TFA] = 1
• COc1cc(N2CCC(Oc3cnc(N4C[C@H](OC)[C@@H](C)[C@@H]4CC(=O)O)nc3)C(C)C2)c(Cl)cn1 (stereo partly drawn) = 0
• CCCCCO[C@@H]1C[C@H](CC(=O)O)N(c2ccc(OC3CCN(c4cc(OCC)ccc4F)CC3)cc2)C1 [Example 103, TFA] = 1
• CCOc1ccc(F)c(N2CCC(Oc3ccc(N4C[C@H](C(F)(F)F)C[C@@H]4CC(=O)O)cc3)C(CC)C2)c1 (single isomer, unassigned) [Example 33, Isomer 1, HCl] = 0
• CCOc1ccc(F)c(N2CCC(Oc3ccc(N4C[C@H](OC)[C@@H](C)[C@@H]4CC(=O)O)c(F)c3)C(C)C2)c1 (stereo partly drawn) = 1
• CCOc1ccc(F)c(N2CCC(Oc3ccc(N4C[C@@H](OCc5ccccc5)C[C@@H]4CC(=O)O)cc3)CC2)c1 [Example 46, HCl] = 1
• COc1ccc(C)c(N2CCC(Oc3ccc(N4C[C@H](OC)C[C@@H]4CC(=O)O)cc3)C(C)C2)c1 (single isomer, unassigned) [Example 64, Isomer 1] = 1
• COc1cc(N2CCC(Oc3ccc(N4C[C@H](OC)[C@@H](C)[C@@H]4CC(=O)O)cc3)C(C)C2)c(F)cc1F (single isomer, unassigned) [Example 169, Isomer 1] = 0
• COc1ccc(CCC(C)(C)C)c(N2CCC(Oc3ccc(N4C[C@H](OC)C[C@@H]4CC(=O)O)cc3)CC2)c1 = 1
